Assay: Evaluation of a conversion rate to 2-acetylnaphtho[2,3-b]furan-4,9-dione in pH 7.4 phosphate buffer solution
Assay type: physicochemical
Settings: Phosphate buffer solution (pH 7.4), 1 umol/L, 37° C., incubation time 120 min
Procedure: For test compounds, the decrease rate of the test compounds and the conversion rate thereof to 2-acetylnaphtho[2,3-b]furan-4,9-dione in human plasma, CD1 mouse plasma, and pH 7.4 phosphate buffer solution were measured. […] Measurement values are calculated from the peak area ratio in LC-MS between an internal standard material, phenytoin and an active form, 2-acetylnaphtho[2,3-b]furan-4,9-dione, and are expressed in %. […]
Please use Condition met for % Measurement value (conversion rate to 2-acetylnaphtho[2,3-b]furan-4,9-dione) under 40% and Condition not met for everything else, ties included.

Solved cases (5 shown):
{"columns": ["Molecule", "Label Class"],
 "data": [
  ["COC(=O)CNCCCNC(=O)Oc1c2ccccc2c(OC(=O)NCCCNCC(=O)OC)c2oc(C(C)=O)cc12.Cl.Cl", "Condition not met"],
  ["CC(=O)c1cc2c(OC(=O)NCCNCCS(=O)(=O)N(C)C)c3ccccc3c(OC(=O)NCCNCCS(=O)(=O)N(C)C)c2o1.Cl.Cl", "Condition met"],
  ["CC(=O)c1cc2c(OC(=O)NC3CCCNC3)c3ccccc3c(OC(=O)NC3CCCNC3)c2o1.Cl.Cl (stereo not shown)", "Condition not met"],
  ["CC(=O)c1cc2c(OC(=O)NC3CCNCC3)c3ccccc3c(OC(=O)NC3CCNCC3)c2o1.Cl.Cl", "Condition not met"],
  ["CC(=O)c1cc2c(O)c3ccccc3c(OC(=O)NCCNCC(=O)O)c2o1.Cl", "Condition not met"]
]}

Say whether its % Measurement value (conversion rate to 2-acetylnaphtho[2,3-b]furan-4,9-dione) is strictly beneath 40%. Entry: CC(=O)c1cc2c(OC(=O)NCCNCCN)c3ccccc3c(OC(=O)NCCNCCN)c2o1.Cl.Cl Condition not met

Say whether its % Measurement value (conversion rate to 2-acetylnaphtho[2,3-b]furan-4,9-dione) is strictly beneath 40%. Entry: COC(=O)OCCNCCNC(=O)Oc1c2ccccc2c(O)c2cc(C(C)=O)oc12.Cl Condition not met

Say whether its % Measurement value (conversion rate to 2-acetylnaphtho[2,3-b]furan-4,9-dione) is strictly beneath 40%. Entry: CC(=O)c1cc2c(O)c3ccccc3c(OC(=O)NCCCNCC(=O)NCC(=O)O)c2o1.Cl Condition met

Say whether its % Measurement value (conversion rate to 2-acetylnaphtho[2,3-b]furan-4,9-dione) is strictly beneath 40%. Entry: CC(=O)c1cc2c(OC(=O)NCCCCCNCC(=O)O)c3ccccc3c(OC(=O)NCCCCCNCC(=O)O)c2o1.Cl.Cl Condition met

----------
Exercise: for every item that follows, state its recorded Solubility in pH 2.0 buffer solution.
Assay: Solubility test
Conditions: 50 mmol/L glycine buffer solution (pH 2.0), room temperature, 24 hours shaking

Dear colleague, could you please provide Solubility in pH 2.0 buffer solution for the molecules listed below?
1. CC(=O)c1cc2c(OC(=O)NCCCNCCOC(N)=O)c3ccccc3c(OC(=O)NCCCNCCOC(N)=O)c2o1.Cl.Cl
2. CC(=O)c1cc2c(OC(=O)NCCNCCS(C)(=O)=O)c3ccccc3c(OC(=O)NCCNCCS(C)(=O)=O)c2o1.Cl.Cl
3. CC(=O)c1cc2c(OC(=O)NC3CCCNC3)c3ccccc3c(OC(=O)NC3CCCNC3)c2o1.Cl.Cl (centres unmarked)
4. CC(=O)c1cc2c(OC(=O)NCCCNCC(=O)N3CCC3)c3ccccc3c(OC(=O)NCCCNCC(=O)N3CCC3)c2o1.Cl.Cl
5. COC(=O)NCCNCCCNC(=O)Oc1c2ccccc2c(OC(=O)NCCCNCCNC(=O)OC)c2oc(C(C)=O)cc12.Cl.Cl
6. CC(=O)c1cc2c(OC(=O)NCCNCCS(=O)(=O)N(C)C)c3ccccc3c(OC(=O)NCCNCCS(=O)(=O)N(C)C)c2o1.Cl.Cl
7. CC(=O)c1cc2c(O)c3ccccc3c(OC(=O)NCCCNCCS(=O)(=O)N(C)C)c2o1.Cl

>5.0 mg/mL
2.5 mg/mL
>5.0 mg/mL
>5.0 mg/mL
>5.0 mg/mL
>5.0 mg/mL
1.0 mg/mL

Output Solubility in pH 2.0 buffer solution of CC(=O)c1cc2c(OC(=O)NCCNCCOC(N)=O)c3ccccc3c(OC(=O)NCCNCCOC(N)=O)c2o1.Cl.Cl >5.0 mg/mL

----------
Assay: Evaluation of a conversion rate to 2-acetylnaphtho[2,3-b]furan-4,9-dione in human plasma
Format: in vitro ADME
Conditions: Human plasma, 1 umol/L, 37° C., incubation time 120 min
Observation Type: % Measurement value (conversion rate to 2-acetylnaphtho[2,3-b]furan-4,9-dione) (%)
Numbers only, in %.

{"columns": ["Smiles Code", "Quantitative Readout"],
 "data": [
  ["COC(=O)NCCNCCCNC(=O)Oc1c2ccccc2c(OC(=O)NCCCNCCNC(=O)OC)c2oc(C(C)=O)cc12.Cl.Cl", 73],
  ["CC(=O)c1cc2c(OC(=O)NCCCNCC(=O)O)c3ccccc3c(O)c2o1.Cl", 68]
]}

Now for a further compound.
Output % Measurement value (conversion rate to 2-acetylnaphtho[2,3-b]furan-4,9-dione) of CC(=O)c1cc2c(OC(=O)NCCCNCC(=O)N3CCC3)c3ccccc3c(OC(=O)NCCCNCC(=O)N3CCC3)c2o1.Cl.Cl 59
